# credit: patent US20210355194A1

- TGT: Acro COVID S1 (S1N-C82E8) (SARS-CoV-2, UniProt P0DTC2 16-685)
- ASSAY PROCEDURE: phage ELISA
READOUT LABEL: specificity ELISA, fold over background (fold over background)
Quick note: give the figure in fold over background, leave out the unit.

# example entries with known answers
binder="variant 2-9 (antibody, V domains shown) VH: EVQLLESGGGLVQPGGSLRLSCAASGFTFPRYAMSWVRQAPGKGLEWVSTISGSGSTTYYADSVKGRFTISRDNSKNTLYLQMNSLRAEDTAVYYCARLIDAFDIWGQGTLVTVSS VL: DIQMTQSPSSLSASVGDRVTITCRASQRIGTYLNWYQQKPGKAPKLLIYAASNLEGGVPSRFSGSGSGTDFTLTISSLQPEDFATYYCQQNYSTTWTFGQGTKVEIK" readout_label="specificity ELISA, fold over background" result_value=24.1
binder="variant 2-13 (antibody, V domains shown) VH: EVQLLESGGGLVQPGGSLRLSCAASGFTFSDYPMNWVRQAPGKGLEWVSAISGSGDNTYYADSVKGRFTISRDNSKNTLYLQMNSLRAEDTAVYYCVRHDEYSFDYWGQGTLVTVSS VL: DIQMTQSPSSLSASVGDRVTITCRASQSIDTYLNWYQQKPGKAPKLLIYGASALESGVPSRFSGSGSGTDFTLTISSLQPEDFATYYCQQSHSAPPYFFGQGTKVEIK" readout_label="specificity ELISA, fold over background" result_value=27.3

Inquiry: Dear colleague, please send me the reported specificity ELISA, fold over background for variant 3-10 (antibody, V domains shown) VH: EVQLLESGGGLVQPGGSLRLSCAASGFTFRSHAMSWVRQAPGKGLEWVSSISGGGASTYYADSVKGRFTISRDNSKNTLYLQMNSLRAEDTAVYYCARVKYLTTSSGWPRPYFDNWGQGTLVTVSS VL: DIQMTQSPSSLSASVGDRVTITCRASQSIRKYLNWYQQKPGKAPKLLIYASSTLQRGVPSRFSGSGSGTDFTLTISSLQPEDFATYYCQQSLSTPFTFGGGTKVEIK when you can.
Reply text: 1.2
